Provenance of the data: patent US10280138B2

# Test system: transiently ocular hypertensive New Zealand white rabbits
# METHOD_DESCRIPTION: Intraocular pressure (IOP) lowering activity in hypertonic saline-induced IOP increase in rabbits
# Assay type: in vivo
# MEASUREMENT_SETUP: 60 minutes after topical administration; dose (%)
PARAMETER_MEASURED: IOP60 min reduction vs vehicle (%)
Express it in %; write the number only.

[
  {
    "MOLECULE": "CC(C)OC(=O)CCC/C=C\\C[C@@H]1[C@@H](/C=C/[C@H](COc2cccc(C(F)(F)F)c2)OC(=O)COCCO[N+](=O)[O-])[C@H](O)C[C@@H]1O",
    "READOUT_UNITS": "%",
    "ENDPOINT_RESULT": 32
  },
  {
    "MOLECULE": "CC(C)OC(=O)CCC/C=C\\C[C@@H]1[C@@H](/C=C/[C@H](COc2cccc(C(F)(F)F)c2)OC(=O)CCCC(CO[N+](=O)[O-])O[N+](=O)[O-])[C@H](O)C[C@@H]1O (stereo partly shown)",
    "READOUT_UNITS": "%",
    "ENDPOINT_RESULT": 28
  },
  {
    "MOLECULE": "CC(C)OC(=O)CCC/C=C\\C[C@@H]1[C@@H](/C=C/[C@@H](O)COc2cccc(C(F)(F)F)c2)[C@H](O)C[C@@H]1O [Fluprostenol isopropyl ester, reference compound]",
    "READOUT_UNITS": "%",
    "ENDPOINT_RESULT": 3
  }
]

Shift focus to the following entry.
Let me know recorded IOP60 min reduction vs vehicle for CCNC(=O)CCC/C=C\C[C@@H]1[C@@H](/C=C/[C@H](CCc2ccccc2)OC(=O)CCCCCO[N+](=O)[O-])[C@H](O)C[C@@H]1O [Compound B-1, reference compound] , thanks.
7

====

# Tested on: transiently ocular hypertensive New Zealand white rabbits
# METHOD_DESCRIPTION: Intraocular pressure (IOP) lowering activity in hypertonic saline-induced IOP increase in rabbits
# Format: in vivo
# MEASUREMENT_SETUP: topical application; dose (%)
Listed below: Maximal IOP reduc. values for each entry.

Write down measured Maximal IOP reduc. (transiently ocular hypertensive New Zealand white rabbits) for this molecule. CC(C)OC(=O)CCC/C=C\C[C@@H]1[C@@H](/C=C/[C@H](COc2cccc(C(F)(F)F)c2)OC(=O)COCCO[N+](=O)[O-])[C@H](O)C[C@@H]1O
37 ± 4%

# lookup: transiently ocular hypertensive New Zealand white rabbits Maximal IOP reduc., key = CC(C)OC(=O)CCC/C=C\C[C@@H]1[C@@H](/C=C/[C@H](COc2cccc(C(F)(F)F)c2)OC(=O)CCCCCO[N+](=O)[O-])[C@H](O)C[C@@H]1O
23 ± 3%

Provide Maximal IOP reduc., tested on transiently ocular hypertensive New Zealand white rabbits, for CC(C)OC(=O)CCC/C=C\C[C@@H]1[C@@H](/C=C/[C@H](COc2cccc(C(F)(F)F)c2)OC(=O)CCCC(CO[N+](=O)[O-])O[N+](=O)[O-])[C@H](O)C[C@@H]1O (stereo partly shown) .
26 ± 3%

Report measured Maximal IOP reduc. on transiently ocular hypertensive New Zealand white rabbits; entry: CCNC(=O)CCC/C=C\C[C@@H]1[C@@H](/C=C/[C@H](CCc2ccccc2)OC(=O)CCCO[N+](=O)[O-])[C@H](O)C[C@@H]1O [Compound A-1, reference compound]
3 ± 9%

Give transiently ocular hypertensive New Zealand white rabbits Maximal IOP reduc. for the following molecule: CCNC(=O)CCC/C=C\C[C@@H]1[C@@H](/C=C/[C@H](CCc2ccccc2)OC(=O)CCCCCO[N+](=O)[O-])[C@H](O)C[C@@H]1O [Compound B-1, reference compound]
10 ± 3%

Provide Maximal IOP reduc., system transiently ocular hypertensive New Zealand white rabbits, entry O=C(O)CCC/C=C\C[C@@H]1[C@@H](/C=C/[C@H](COc2cccc(C(F)(F)F)c2)OC(=O)CCCC(CO[N+](=O)[O-])O[N+](=O)[O-])[C@H](O)C[C@@H]1O (stereo partly shown)
39 ± 3%

Report Maximal IOP reduc. on transiently ocular hypertensive New Zealand white rabbits for this entry: CC(C)OC(=O)CCC/C=C\C[C@@H]1[C@@H](/C=C/[C@H](COc2cccc(C(F)(F)F)c2)OC(=O)CCOCC(CO[N+](=O)[O-])O[N+](=O)[O-])[C@H](O)C[C@@H]1O (stereo partly shown)
38 ± 3%

====

# System: transiently ocular hypertensive New Zealand white rabbits
# METHOD_DESCRIPTION: Intraocular pressure (IOP) lowering activity in hypertonic saline-induced IOP increase in rabbits
# Type: in vivo
# MEASUREMENT_SETUP: 60 minutes after topical administration; dose (%)
In plain terms, low IOP60 min reduction vs vehicle, meaning strictly below 20%, gives satisfied, and everything else gives not satisfied.

Solved entries:
[
  {
    "COMPOUND": "CCNC(=O)CCC/C=C\\C[C@@H]1[C@@H](/C=C/[C@H](CCc2ccccc2)OC(=O)CCCO[N+](=O)[O-])[C@H](O)C[C@@H]1O [Compound A-1, reference compound]",
    "SYSTEM": "transiently ocular hypertensive New Zealand white rabbits",
    "ASSIGNED_CLASS": "satisfied"
  },
  {
    "COMPOUND": "O=C(O)CCC/C=C\\C[C@@H]1[C@@H](/C=C/[C@H](COc2cccc(C(F)(F)F)c2)OC(=O)CCCC(CO[N+](=O)[O-])O[N+](=O)[O-])[C@H](O)C[C@@H]1O (some centres unmarked) [Comp. (13)]",
    "SYSTEM": "transiently ocular hypertensive New Zealand white rabbits",
    "ASSIGNED_CLASS": "not satisfied"
  },
  {
    "COMPOUND": "CCNC(=O)CCC/C=C\\C[C@@H]1[C@@H](/C=C/[C@@H](O)CCc2ccccc2)[C@H](O)C[C@@H]1O [Bimatoprost, reference compound]",
    "SYSTEM": "transiently ocular hypertensive New Zealand white rabbits",
    "ASSIGNED_CLASS": "satisfied"
  }
]

Consider now this further compound.
Hi there! Is IOP60 min reduction vs vehicle for CC(C)OC(=O)CCC/C=C\C[C@@H]1[C@@H](/C=C/[C@H](COc2cccc(C(F)(F)F)c2)OC(=O)CCOCC(CO[N+](=O)[O-])O[N+](=O)[O-])[C@H](O)C[C@@H]1O (some centres unmarked) [Comp. (12)] below 20%, do you know?
not satisfied
